tested on: RARb homodimer (NR concentration 270 nM); assay: PBM binding z-score (relative to random genomic background probes); higher = stronger binding; sequences stand for … in GC…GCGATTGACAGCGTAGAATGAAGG
Param threshold (2) applies to PBM binding z-score; output Condition met when value >= threshold, Condition not met when value < threshold.

Threshold query (PBM binding z-score >= 2) on AGGATGAGGTTATTAAGATCAGGGAATTGCGGTC Condition not met

Threshold query (PBM binding z-score >= 2) on CGTCCAAGGTCATAGGACGTCAGTGAAGACAGAT Condition met

Threshold query (PBM binding z-score >= 2) on ATCTCTAGGTAAAGTTGAGTGAAAGATCGATAGA Condition not met

Threshold query (PBM binding z-score >= 2) on ATATGTAGGTTATCGGGTCAGTCAGTTTGCGCAT Condition met

Threshold query (PBM binding z-score >= 2) on TCTATTAGTTGATTAGGGAAACCGAAACAGCGGA Condition not met

Threshold query (PBM binding z-score >= 2) on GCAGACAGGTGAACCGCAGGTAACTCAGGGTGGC Condition not met

Threshold query (PBM binding z-score >= 2) on GCTATTAGTTGAAAGGGCACCCGAATGATTCTCG Condition not met

Threshold query (PBM binding z-score >= 2) on TAGAGTAGGTTACCAATGGGGCATTCAGCTTTCT Condition not met

Threshold query (PBM binding z-score >= 2) on ATATATAGGTTAGCTGGGGTCATTCAGACTAGGC Condition met

Threshold query (PBM binding z-score >= 2) on CCTAACGGGTCACTCCAGGTTATAGCATCGGAGT Condition met

Threshold query (PBM binding z-score >= 2) on CCTACTGTGCCAAAAAGGTCATTGATGCCGATAA Condition met

Threshold query (PBM binding z-score >= 2) on CCTACTGGGCCAAAGATCATTGATTCCAATGCTC Condition not met

Threshold query (PBM binding z-score >= 2) on TCTGCTAGGTCAACGATGGTCAGGTAATCTGCTA Condition met

Threshold query (PBM binding z-score >= 2) on AGAATGAGGTTAACATCAGGGAAACAGAATACAT Condition not met

Threshold query (PBM binding z-score >= 2) on ATCTCTAGGTAAAGATATTTCAGTGAATGCAAAT Condition not met

Threshold query (PBM binding z-score >= 2) on GCTATTAGTTGCAAGGGCAACCGAATGATTCTCG Condition not met

Threshold query (PBM binding z-score >= 2) on CAAACTAGGTCACCGGTAGGTCAAAGTCCGCATG Condition met

Threshold query (PBM binding z-score >= 2) on CCTATTAGTCGACCATAAGGGCAACCGAAGCTCG Condition not met

Threshold query (PBM binding z-score >= 2) on ATCTCTAGGTTAAGTTCAGTGAAAGATCGATAGA Condition met

Threshold query (PBM binding z-score >= 2) on ACTATTAGTTCACTTAGGGCAACCGATACGACGC Condition not met

Threshold query (PBM binding z-score >= 2) on AGAATGAGGTTATACGTAGATCAGAGAAGAAAGT Condition not met

Threshold query (PBM binding z-score >= 2) on CGAACTAGGTCAAAGACAGTGAATCTCCGCACGC Condition met

Threshold query (PBM binding z-score >= 2) on CCTAGTTGGTCAAGGTCATACACGCTATAGGTAC Condition met

Threshold query (PBM binding z-score >= 2) on CAAACTAGGTCAAGAGGACAAAGTCCGCTTCCCG Condition met

Threshold query (PBM binding z-score >= 2) on ACTTACGGGTCAACGTGGTTATAGCACGCGTATA Condition met

Threshold query (PBM binding z-score >= 2) on GTATATAGGTAATACAAGGTGAAAGTCCGATTGT Condition not met

Threshold query (PBM binding z-score >= 2) on CCTAGGAGGCCAATCTGGGTCACTCAAGGCTTGA Condition met

Threshold query (PBM binding z-score >= 2) on GCGACTGGGGCAAGGCAGGTTACCATAAGGTTGG Condition not met

Threshold query (PBM binding z-score >= 2) on GCTGCTAGGACAACTGATGGTCAGCTAAAGCTCG Condition not met

Threshold query (PBM binding z-score >= 2) on ACAGACAGGTGATGAAGGTATCTCAGGCTATCAT Condition not met

Threshold query (PBM binding z-score >= 2) on TCTTGTAGATCAAAGGTTTAGAAAGCCGAAGCCT Condition not met

Threshold query (PBM binding z-score >= 2) on ACAGACAGGTGGGTGAAGGTAACTCAGCTGGACG Condition not met

Threshold query (PBM binding z-score >= 2) on AATACAGGGTCAATAGGCCAGAGTAGGTACGAAT Condition met

Threshold query (PBM binding z-score >= 2) on CGTCAAAGTTTAAGGTAACGTAACAGAAAGCAGC Condition not met

Threshold query (PBM binding z-score >= 2) on CGTACTGGGCCAAAGGTCATTGATTCCAATGCTC Condition met

Threshold query (PBM binding z-score >= 2) on TGAATGAGGTTGTAAGATCAGGGAACGTTGCAAA Condition not met

Threshold query (PBM binding z-score >= 2) on CGTCCCAGGTCAAAGGTCAGTGAAGAGATGACGG Condition met

Threshold query (PBM binding z-score >= 2) on TCTATTAGTTGAAGGGCACCCGACGAGTCCGTTT Condition not met

Threshold query (PBM binding z-score >= 2) on CACGAAAGGTCGGTTGAGGTGAGTATACGGATAA Condition met

Threshold query (PBM binding z-score >= 2) on CGTCCAAGGTCAGCAGGTCGGTGAAAGCGACGTG Condition met

Threshold query (PBM binding z-score >= 2) on TCTCGTAGATCAAAGGTTAAGAAAGCCGAAGCCT Condition not met

Threshold query (PBM binding z-score >= 2) on CCTACTGGGCCAAGGTAATTGATCAGTCAAAGCA Condition not met

Threshold query (PBM binding z-score >= 2) on TAGCCTAGGTCATTCAGGGGCGAGTATAGAAAGC Condition met

Threshold query (PBM binding z-score >= 2) on CCGACTGGGGCAATGTTACCATAACGCACAGCCA Condition not met

Threshold query (PBM binding z-score >= 2) on AGAATGAGGGTATTAAGATCAGGGAATTGCGGTC Condition not met

Threshold query (PBM binding z-score >= 2) on TAGCCTAGGTCATTCAGGGGCCGGTATAGAAAGC Condition met

Threshold query (PBM binding z-score >= 2) on ACTCGGAGGACAAAGGTCAGTGCTACGCCAGTGA Condition met

Threshold query (PBM binding z-score >= 2) on AGAACGAGGTTATTAAGATCAGGGAATTGCGGTC Condition not met

Threshold query (PBM binding z-score >= 2) on CGTACAAGGTCAGCAGGTCAGTGAAAGCGACGTG Condition met

Threshold query (PBM binding z-score >= 2) on ATCTCTAGGTAAGACTCAGTTCAGGGAAGAACGC Condition not met

Threshold query (PBM binding z-score >= 2) on ACTATTAGTTGACTTAGGGCAACCTATACGACGC Condition not met

###

tested on: THRa homodimer (NR concentration 90 nM); test: PBM binding z-score (relative to random genomic background probes); higher = stronger binding; sequences stand for … in GC…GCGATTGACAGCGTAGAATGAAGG
Provide the recorded PBM binding z-score for the entries that follow.
Output: the number by itself.

PBM binding z-score recorded for this sequence, CCTGCTAGGTCATGTTCAGCTAATCTACAGTATG , is 1.08

PBM binding z-score recorded for this sequence, GCGACTGGGGCAAAGAAGGTTACCATAAGGTTGG , is 0.225

PBM binding z-score recorded for this sequence, CGTCCAAGGACAAGGTCAGTGAAAGAGACTCGAA , is 2.39

PBM binding z-score recorded for this sequence, CGAACTAGGTCATCCAGGAGAGTGAATACATTGA , is 0.976

PBM binding z-score recorded for this sequence, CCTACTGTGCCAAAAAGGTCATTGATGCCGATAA , is 1.48

PBM binding z-score recorded for this sequence, TGAATGAGGTTAAAGATCAGGGAACGTGGCGTCG , is 0.44

PBM binding z-score recorded for this sequence, CGAACTAGGTCATCCCGGACAGTGAATACATTGA , is 1.4

PBM binding z-score recorded for this sequence, AGAATGAGGTTACCACAGATCAGGGAAACGCTTG , is 0.878
